# Target of assay: P-selectin (PS-Rg) (Homo sapiens, UniProt P16109 P16109:42-321)
# Sequence (P16109 42-321, one chain of several): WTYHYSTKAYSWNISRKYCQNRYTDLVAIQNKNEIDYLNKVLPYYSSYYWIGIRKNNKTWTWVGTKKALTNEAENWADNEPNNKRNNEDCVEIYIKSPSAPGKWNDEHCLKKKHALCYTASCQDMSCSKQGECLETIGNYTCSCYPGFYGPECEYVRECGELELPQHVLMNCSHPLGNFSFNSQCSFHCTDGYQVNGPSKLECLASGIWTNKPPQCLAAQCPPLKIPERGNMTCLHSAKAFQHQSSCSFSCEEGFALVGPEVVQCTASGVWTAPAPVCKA
# Assay summary: inhibition; sialyl-LewisX
# Particulars: tags: human IgG Fc fusion; chain copies: 2 (stated dimer); label: fluorescein (inferred)
# Procedure: The ability of evolved RNA pools or cloned ligands to inhibit the binding of PS-Rg to sialyl-Lewis^x was tested in competitive ELISA assays (C. Foxall et al., 1992, supra). […] The binding solution was removed, wells were washed with 300 μl of PBS(−) and then probed with HRP conjugated anti-human IgG, at room temperature to quantitate PS-Rg binding. […]
Value kind: IC50 (nM)
// units = nM; emit number, no label

Query: Fill in IC50 for record CUCAACGAGCCAGGAACAUCGACGUCAGCAAACGCGAG (ssRNA, 2'-F C and U) [PF377s1F]
Reply: 3

Attribution: patent US20030059769
